Assay: Ratio of drug level in plasma to brain of CD1 mouse
Property measured: Kp

Q) Return reported Kp. Input molecule: NC(=O)c1cccc2[nH]c(-c3ccc([C@@H]4CCCN4)cc3F)nc12
A) 2

Q) Specify Kp for NC(=O)c1cccc2[nH]c(-c3ccc([C@H]4CCCN4)cc3F)nc12 and stop.
A) 2

----------
Experiment: Terminal phase volume of distribution in cynomolgus monkey
Format: ADME, organism-based, Macaca fascicularis
Settings: in vivo, read-out: Vbeta
Property measured: Vd (L/kg)
Answer in L/kg, number only, no unit symbol.

Q) Report Vd for NC(=O)c1cccc2[nH]c(-c3ccc([C@@H]4CCCCN4)cc3F)nc12
A) 15

Q) Give the measured Vd for NC(=O)c1cccc2[nH]c(-c3ccc([C@@H]4CCCN4)cc3F)nc12
A) 9.2

Ref: ChEMBL document CHEMBL1156198
